Origin of the recorded values: patent US9840494B2

# experiment.notes: Bioavailability assay in rats, Experiment I (dihydrochloride)
# Type: in vivo
# conditions: male, rat, plasma; Wistar rats, 20 mg/kg iv, 6 h; read-out: Average Plasma Drug Concentration
measured.endpoint: concentration at 6 h (ng/mL)
Could you give me the number in ng/mL? Just the number is fine.

Query (compound): COCCOc1cc2ncnc(Nc3ccc(F)c(Cl)c3)c2cc1NC(=O)C=C1CCN(CCOC)CC1.Cl.Cl [Compound 2, dihydrochloride] ; field requested: concentration at 6 h
557
